target-system: RARα (Homo sapiens)
Construct: expressed in transfected cells; host or cells: CV1
Sequence (P10276 whole entry): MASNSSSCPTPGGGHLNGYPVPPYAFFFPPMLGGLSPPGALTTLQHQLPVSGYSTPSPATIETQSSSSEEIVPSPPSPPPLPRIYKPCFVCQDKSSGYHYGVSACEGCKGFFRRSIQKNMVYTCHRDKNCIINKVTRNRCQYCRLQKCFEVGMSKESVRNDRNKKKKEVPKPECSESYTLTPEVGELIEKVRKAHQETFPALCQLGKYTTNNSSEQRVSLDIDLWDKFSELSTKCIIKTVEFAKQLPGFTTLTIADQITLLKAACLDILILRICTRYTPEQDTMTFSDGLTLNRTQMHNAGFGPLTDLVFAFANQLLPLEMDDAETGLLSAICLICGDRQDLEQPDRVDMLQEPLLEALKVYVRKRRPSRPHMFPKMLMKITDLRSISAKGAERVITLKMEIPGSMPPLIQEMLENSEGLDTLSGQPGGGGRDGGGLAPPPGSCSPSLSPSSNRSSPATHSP
test: Holoreceptor transactivation assay, RARα
Assay type: cell-based
run-parameters: CV-1; CV1 cells; relative to all trans retinoic acid; read-out: Transactivation Assay Efficacy (% of RA activity), RARα
readout-type: Emax (%)
Please respond with the number in % and leave the unit unwritten.

Cc1cc2c(cc1Sc1ccc(C(=O)O)cc1)C(C)(C)CCC2(C)C = 3

stdin: Look up Emax for this compound: CC1(C)CCC(C)(C)c2cc(Sc3ccc(C(=O)O)cc3)ccc21
stdout: 3

stdin: Look up Emax for this compound: Cc1cc2c(cc1Sc1ncc(C(=O)O)s1)C(C)(C)CCC2(C)C
stdout: 1

stdin: Look up Emax for this compound: CC1(C)CCC(C)(C)c2cc(S(=O)(=O)c3ccc(C(=O)O)cc3)ccc21
stdout: 10

stdin: Look up Emax for this compound: Cc1cc2c(cc1S(=O)(=O)c1ccc(C(=O)O)cc1)C(C)(C)CCC2(C)C
stdout: 2

stdin: Look up Emax for this compound: Cc1cc2c(cc1Sc1ccc(C(=O)O)cn1)C(C)(C)CCC2(C)C
stdout: 1

====

target-system: RXRα (Homo sapiens)
Construct: expressed in transfected cells; host or cells: CV1
Sequence (P19793 whole entry): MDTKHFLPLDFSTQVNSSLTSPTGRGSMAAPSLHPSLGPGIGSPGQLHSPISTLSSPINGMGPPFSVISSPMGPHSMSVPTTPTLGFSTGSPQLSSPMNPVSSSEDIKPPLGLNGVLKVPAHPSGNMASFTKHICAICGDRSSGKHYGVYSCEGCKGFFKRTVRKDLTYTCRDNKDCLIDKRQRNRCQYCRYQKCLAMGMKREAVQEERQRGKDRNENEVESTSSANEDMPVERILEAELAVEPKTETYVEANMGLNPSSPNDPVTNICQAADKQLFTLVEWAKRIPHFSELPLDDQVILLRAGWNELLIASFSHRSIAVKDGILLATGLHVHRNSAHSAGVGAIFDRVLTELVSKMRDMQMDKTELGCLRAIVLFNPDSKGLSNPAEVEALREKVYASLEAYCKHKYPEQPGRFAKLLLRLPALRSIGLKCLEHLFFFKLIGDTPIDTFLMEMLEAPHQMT
test: Ligand binding assay, RXRα
readout-type: Kd (nM)
Please respond with the number in nM and leave the unit unwritten.

stdin: Look up Kd for this molecule: Cc1cc2c(cc1Sc1ccc(C(=O)O)cc1)C(C)(C)CCC2(C)C
stdout: 296

====

target-system: RARβ (Homo sapiens, UniProt P10826)
Construct: expressed in transfected cells; host or cells: CV1
Sequence (P10826 1-448 isoform P10826-2): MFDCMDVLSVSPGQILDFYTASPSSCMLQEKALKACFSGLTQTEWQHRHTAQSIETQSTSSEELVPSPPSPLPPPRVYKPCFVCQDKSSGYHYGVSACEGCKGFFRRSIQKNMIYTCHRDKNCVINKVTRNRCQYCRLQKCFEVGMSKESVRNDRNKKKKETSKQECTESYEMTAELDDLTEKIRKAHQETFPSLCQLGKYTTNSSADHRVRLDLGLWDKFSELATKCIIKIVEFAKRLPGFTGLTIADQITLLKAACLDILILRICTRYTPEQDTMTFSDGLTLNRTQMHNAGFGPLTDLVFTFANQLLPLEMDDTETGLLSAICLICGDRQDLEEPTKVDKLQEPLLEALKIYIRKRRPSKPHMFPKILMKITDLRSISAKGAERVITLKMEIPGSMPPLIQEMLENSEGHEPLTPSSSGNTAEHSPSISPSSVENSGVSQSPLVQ
test: Holoreceptor transactivation assay, RARβ
Assay type: cell-based
run-parameters: CV-1; CV1 cells; relative to all trans retinoic acid; read-out: Transactivation Assay Efficacy (% of RA activity), RARβ
readout-type: Emax (%)
Please respond with the number in % and leave the unit unwritten.

Cc1cc2c(cc1Sc1ccc(C(=O)O)cc1)C(C)(C)CCC2(C)C = 4

stdin: Tell me reported Emax for Cc1cc2c(cc1Sc1ccc(C(=O)O)cn1)C(C)(C)CCC2(C)C , tested with RARβ (Homo sapiens, UniProt P10826).
stdout: 4

stdin: Tell me reported Emax for Cc1cc2c(cc1Sc1ncc(C(=O)O)s1)C(C)(C)CCC2(C)C , tested with RARβ (Homo sapiens, UniProt P10826).
stdout: 0

stdin: Tell me reported Emax for CC1(C)CCC(C)(C)c2cc(Sc3ccc(C(=O)O)cc3)ccc21 , tested with RARβ (Homo sapiens, UniProt P10826).
stdout: 66

stdin: Tell me reported Emax for CC1(C)CCC(C)(C)c2cc(S(=O)(=O)c3ccc(C(=O)O)cc3)ccc21 , tested with RARβ (Homo sapiens, UniProt P10826).
stdout: 4

stdin: Tell me reported Emax for Cc1cc2c(cc1S(=O)(=O)c1ccc(C(=O)O)cc1)C(C)(C)CCC2(C)C , tested with RARβ (Homo sapiens, UniProt P10826).
stdout: 6

====

The following compounds are listed with their measured pEC50 values.
target-system: RXRγ (Mus musculus, UniProt P28705)
Sequence (P28705 whole entry): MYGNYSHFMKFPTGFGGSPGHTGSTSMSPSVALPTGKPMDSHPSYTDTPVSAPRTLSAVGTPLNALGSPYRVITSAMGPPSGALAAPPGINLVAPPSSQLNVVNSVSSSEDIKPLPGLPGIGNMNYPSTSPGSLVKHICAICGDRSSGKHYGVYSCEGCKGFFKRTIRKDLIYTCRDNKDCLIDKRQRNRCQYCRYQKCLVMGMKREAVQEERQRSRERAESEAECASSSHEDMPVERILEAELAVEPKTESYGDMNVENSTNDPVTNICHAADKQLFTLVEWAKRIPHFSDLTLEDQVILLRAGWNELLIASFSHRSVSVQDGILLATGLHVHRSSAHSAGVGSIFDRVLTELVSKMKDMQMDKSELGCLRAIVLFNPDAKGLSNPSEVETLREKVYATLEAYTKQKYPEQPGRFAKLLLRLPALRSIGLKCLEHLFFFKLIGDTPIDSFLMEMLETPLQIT
test: Holoreceptor transactivation assay, RXRγ
run-parameters: CV1 cells, 36 hours
Note on units: pEC50 is unitless, being -log10 of a concentration expressed in mol/L.

Worked set:
Cc1cc2c(cc1Sc1ncc(C(=O)O)s1)C(C)(C)CCC2(C)C [Compound 15] = 5.72
Cc1cc2c(cc1Sc1ccc(C(=O)O)cc1)C(C)(C)CCC2(C)C [Compound 7] = 6.64

stdin: Look up pEC50 for this compound: CC1(C)CCC(C)(C)c2cc(S(=O)(=O)c3ccc(C(=O)O)cc3)ccc21 [Compound 5]
stdout: 5.59

stdin: Look up pEC50 for this compound: Cc1cc2c(cc1Sc1ccc(C(=O)O)cn1)C(C)(C)CCC2(C)C [Compound 13]
stdout: 7.38
